- target-desc: UniProtKB O00763
- Sequence (O00763 27-2458 limits assumed): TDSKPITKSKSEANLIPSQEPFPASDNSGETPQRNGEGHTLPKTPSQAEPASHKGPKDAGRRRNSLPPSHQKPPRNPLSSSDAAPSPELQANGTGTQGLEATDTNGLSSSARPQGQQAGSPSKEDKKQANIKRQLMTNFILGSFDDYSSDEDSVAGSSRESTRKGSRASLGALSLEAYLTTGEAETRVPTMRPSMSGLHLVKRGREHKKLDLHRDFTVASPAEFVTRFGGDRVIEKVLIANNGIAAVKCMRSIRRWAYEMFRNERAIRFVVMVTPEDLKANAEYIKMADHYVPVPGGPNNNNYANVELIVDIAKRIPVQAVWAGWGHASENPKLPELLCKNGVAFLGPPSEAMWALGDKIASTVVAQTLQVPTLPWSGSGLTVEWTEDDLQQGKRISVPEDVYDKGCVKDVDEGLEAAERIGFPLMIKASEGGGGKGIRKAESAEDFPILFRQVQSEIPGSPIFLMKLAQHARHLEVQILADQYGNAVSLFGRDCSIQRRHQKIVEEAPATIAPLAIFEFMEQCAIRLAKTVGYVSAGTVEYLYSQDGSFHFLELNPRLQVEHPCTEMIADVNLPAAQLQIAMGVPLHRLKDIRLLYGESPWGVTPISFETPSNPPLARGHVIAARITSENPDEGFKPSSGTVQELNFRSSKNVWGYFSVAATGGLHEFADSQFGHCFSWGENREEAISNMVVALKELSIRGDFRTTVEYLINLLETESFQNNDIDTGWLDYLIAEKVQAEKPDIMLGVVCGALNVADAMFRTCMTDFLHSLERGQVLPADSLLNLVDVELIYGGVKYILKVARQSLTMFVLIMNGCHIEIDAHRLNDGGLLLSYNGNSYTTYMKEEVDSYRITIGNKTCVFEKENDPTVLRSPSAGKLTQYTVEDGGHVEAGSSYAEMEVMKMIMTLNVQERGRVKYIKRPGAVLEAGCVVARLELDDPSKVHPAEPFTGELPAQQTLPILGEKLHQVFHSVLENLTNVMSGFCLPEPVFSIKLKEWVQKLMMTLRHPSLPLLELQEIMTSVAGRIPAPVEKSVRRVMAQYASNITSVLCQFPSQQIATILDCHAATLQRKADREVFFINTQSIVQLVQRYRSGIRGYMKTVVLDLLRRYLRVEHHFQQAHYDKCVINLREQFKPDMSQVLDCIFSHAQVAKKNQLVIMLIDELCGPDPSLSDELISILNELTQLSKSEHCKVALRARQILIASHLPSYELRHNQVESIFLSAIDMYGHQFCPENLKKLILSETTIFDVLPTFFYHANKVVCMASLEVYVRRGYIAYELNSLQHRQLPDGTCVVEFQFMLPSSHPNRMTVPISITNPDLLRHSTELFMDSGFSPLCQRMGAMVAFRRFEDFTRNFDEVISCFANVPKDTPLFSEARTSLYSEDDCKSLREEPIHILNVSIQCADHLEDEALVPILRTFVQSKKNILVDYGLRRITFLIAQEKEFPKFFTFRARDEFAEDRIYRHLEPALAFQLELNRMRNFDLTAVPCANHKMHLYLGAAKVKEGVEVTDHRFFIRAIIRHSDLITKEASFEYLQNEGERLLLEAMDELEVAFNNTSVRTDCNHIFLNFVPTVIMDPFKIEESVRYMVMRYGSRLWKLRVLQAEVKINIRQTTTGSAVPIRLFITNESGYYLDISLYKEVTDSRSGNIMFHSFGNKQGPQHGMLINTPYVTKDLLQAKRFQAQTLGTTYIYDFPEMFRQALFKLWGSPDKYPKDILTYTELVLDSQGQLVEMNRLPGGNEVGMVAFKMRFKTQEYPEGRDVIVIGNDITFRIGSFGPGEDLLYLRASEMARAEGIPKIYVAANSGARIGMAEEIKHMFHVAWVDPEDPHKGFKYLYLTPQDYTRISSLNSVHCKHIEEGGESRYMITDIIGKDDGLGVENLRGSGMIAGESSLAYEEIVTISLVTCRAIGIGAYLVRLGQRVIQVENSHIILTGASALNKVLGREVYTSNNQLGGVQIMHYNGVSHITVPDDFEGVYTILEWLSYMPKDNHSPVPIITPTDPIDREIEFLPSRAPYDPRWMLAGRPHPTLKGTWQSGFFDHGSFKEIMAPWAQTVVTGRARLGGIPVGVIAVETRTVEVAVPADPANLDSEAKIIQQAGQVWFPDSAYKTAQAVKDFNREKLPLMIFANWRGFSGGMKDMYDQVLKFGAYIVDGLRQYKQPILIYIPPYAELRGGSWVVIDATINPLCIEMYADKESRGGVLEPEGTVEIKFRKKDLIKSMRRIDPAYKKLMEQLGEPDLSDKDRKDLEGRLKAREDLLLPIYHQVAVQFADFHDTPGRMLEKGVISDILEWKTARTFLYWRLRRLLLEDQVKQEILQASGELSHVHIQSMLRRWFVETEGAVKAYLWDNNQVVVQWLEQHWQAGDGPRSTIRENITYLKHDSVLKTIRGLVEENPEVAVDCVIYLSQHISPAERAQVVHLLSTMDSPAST
- assay: Human ACC2 enzyme assay, Assay B2 (ADP-Glo);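 further: human ACC2 activity read as ADP product, detected by luciferase glow luminescence after residual ATP removal, enzyme near 2 ng/µl in linear range, detection steps at 22 °C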
# IC50 values compiled below
Be sure to follow the number with its unit.

Use these answered entries as a reference point.
| compound | IC50 |
| --- | --- |
| O=C1N[C@]2(CC[C@@H](C(F)(F)F)CC2)C(O)=C1c1cc(-c2ccc(F)c(F)c2)ccc1Cl [1-99] | 11.3 µM |
| CC[C@]1(OC)CC[C@@]2(CC1)NC(=O)C(c1c(C)ccc(-c3ccc(F)cc3)c1C)=C2O [1-89] | 13.6 µM |
| Cc1cc(C)c(-c2ccc(Cl)cc2)cc1C1=C(O)CC(C)(C)CC1=O [7-3] | 13 µM |

Lab note: next compound to report on.
[Q] Tell me measured IC50 for CO[C@H]1CC[C@]2(CC1)NC(=O)C(c1cc(-c3ccc(Cl)cc3)c(Cl)cc1C)=C2O [1-109] please.
[A] 0.394 µM

Source: patent US20130040935A1
